# Test system: HCT-116
# Protocol: In vitro inhibition of proliferation of human colon cancer line 116 after 72 hrs incubation.
# Type: functional, cell-based
# Run Conditions: HCT-116, 72 h
Reported pIC50 values follow for various molecules
Scale explanation: pIC50 corresponds to minus log10 of a concentration expressed in moles per litre.

# example entries with known answers
CC(=O)O[C@H]1C(=O)[C@]2(C)C=C[C@H]3OC[C@@]3(OC(C)=O)C2[C@H](OC(=O)c2ccccc2)[C@]2(O)C[C@H](OC(=O)[C@H](O)[C@@H](NC(=O)c3ccccc3)c3ccccc3)C(C)=C1C2(C)C (stereo partly specified)    8.30
CC(=O)O[C@H]1C(=O)[C@@]2(C)C([C@H](OC(=O)c3ccccc3)[C@]3(O)C[C@H](OC(=O)[C@H](O)[C@@H](NC(=O)c4ccccc4)c4ccccc4)C(C)=C1C3(C)C)[C@]1(OC(C)=O)CO[C@@H]1C[C@@H]2OC(=O)CCl (stereo partly specified)    8.15

Ask | # value lookup — system HCT-116, readout pIC50, item CC(=O)O[C@H]1C(=O)[C@@]2(C)C([C@H](OC(=O)c3ccccc3)[C@]3(O)C[C@H](OC(=O)[C@H](O)[C@@H](NC(=O)c4ccccc4)c4ccccc4)C(C)=C1C3(C)C)[C@]1(OC(C)=O)CO[C@@H]1C[C@H]2F (stereo partly specified)
Reply | 7.96

Ask | Request - read-out pIC50 | tested on HCT-116 | molecule CC(=O)O[C@H]1C(=O)[C@]23C[C@H]2C[C@H]2OC[C@@]2(OC(C)=O)C3[C@H](OC(=O)c2ccccc2)[C@]2(O)C[C@H](OC(=O)[C@H](O)[C@@H](NC(=O)c3ccccc3)c3ccccc3)C(C)=C1C2(C)C (stereo partly specified)
Reply | 8.10

Ask | Param readout= pIC50; system= HCT-116; entry= CC(=O)O[C@H]1C(=O)[C@]2(C)CC[C@H]3OC[C@@]3(OC(C)=O)C2[C@H](OC(=O)c2ccccc2)[C@]2(O)C[C@H](OC(=O)[C@H](O)[C@@H](NC(=O)c3ccccc3)c3ccccc3)C(C)=C1C2(C)C (stereo partly specified) ; returns value.
Reply | 8.40

----------
# Subject Of Test: Tubulin alpha chain (Sus scrofa)
# Protocol: Initial tubulin polymerization rate relative to taxol.
# Assay type: functional
Measured Quantity: Initial rate ratio
Give only the figure.

CC(=O)O[C@@]12CO[C@@H]1C[C@H](O)[C@@]1(C)C(=O)[C@H](O)C3=C(C)[C@@H](OC(=O)[C@H](O)[C@@H](NC(=O)OC(C)(C)C)c4ccccc4)C[C@@](O)([C@@H](OC(=O)c4ccccc4)[C@H]21)C3(C)C    2

Ask | So what's the measured Initial rate ratio for this one? CC(=O)O[C@H]1C(=O)[C@]2(C)C(O[Si](C)(C)c3ccccc3)C[C@H]3OC[C@@]3(OC(C)=O)C2[C@H](OC(=O)c2ccccc2)[C@]2(O)C[C@H](OC(=O)[C@H](O)[C@@H](NC(=O)c3ccccc3)c3ccccc3)C(C)=C1C2(C)C (some centres not stated)
Reply | 0
